Recorded IC50 for compounds tested on Protein deacetylase HDAC6 (Homo sapiens), drawn from a number of studies.
# MEASURED ON: Protein deacetylase HDAC6 (Homo sapiens)
# Sequence (Q9UBN7 whole entry): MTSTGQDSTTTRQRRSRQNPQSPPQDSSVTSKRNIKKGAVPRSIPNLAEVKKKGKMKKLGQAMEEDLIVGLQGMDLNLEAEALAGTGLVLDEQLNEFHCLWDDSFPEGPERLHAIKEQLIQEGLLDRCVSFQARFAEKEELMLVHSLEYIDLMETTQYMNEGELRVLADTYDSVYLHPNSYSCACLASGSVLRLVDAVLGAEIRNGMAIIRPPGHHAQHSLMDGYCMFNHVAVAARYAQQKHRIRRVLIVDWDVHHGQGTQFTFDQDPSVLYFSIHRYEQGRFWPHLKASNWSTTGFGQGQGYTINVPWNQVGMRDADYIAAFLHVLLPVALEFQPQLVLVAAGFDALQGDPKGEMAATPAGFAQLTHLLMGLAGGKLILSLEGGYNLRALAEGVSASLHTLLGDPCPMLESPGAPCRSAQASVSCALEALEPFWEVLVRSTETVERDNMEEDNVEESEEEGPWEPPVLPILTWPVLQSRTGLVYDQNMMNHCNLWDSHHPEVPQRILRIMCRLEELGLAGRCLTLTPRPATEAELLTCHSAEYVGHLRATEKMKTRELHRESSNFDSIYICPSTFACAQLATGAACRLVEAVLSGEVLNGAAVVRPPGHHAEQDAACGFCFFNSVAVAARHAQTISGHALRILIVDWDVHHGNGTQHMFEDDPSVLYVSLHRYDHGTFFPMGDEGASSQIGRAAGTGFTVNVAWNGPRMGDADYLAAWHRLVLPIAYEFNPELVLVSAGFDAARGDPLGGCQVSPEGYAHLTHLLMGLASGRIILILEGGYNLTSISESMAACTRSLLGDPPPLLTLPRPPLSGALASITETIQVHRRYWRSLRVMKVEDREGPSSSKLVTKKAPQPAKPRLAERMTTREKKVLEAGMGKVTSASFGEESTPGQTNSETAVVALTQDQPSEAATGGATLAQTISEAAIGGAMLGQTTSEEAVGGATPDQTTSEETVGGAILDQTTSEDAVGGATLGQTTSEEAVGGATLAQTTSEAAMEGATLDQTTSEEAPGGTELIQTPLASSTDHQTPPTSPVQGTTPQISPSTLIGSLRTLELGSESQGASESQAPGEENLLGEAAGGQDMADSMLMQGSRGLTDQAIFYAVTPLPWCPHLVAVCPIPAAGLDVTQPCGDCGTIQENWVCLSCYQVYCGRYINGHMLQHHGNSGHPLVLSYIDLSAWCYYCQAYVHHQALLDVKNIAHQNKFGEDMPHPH
READOUT: IC50 (nM)

                                   compound  inequality_symbol  readout_number
0              Cc1csc(Nc2ccc(C(=O)NO)cc2)n1                  =             137
1  O=C(NO)c1ccc(C(=O)Nc2n[nH]c3cc(-c4cc(Cl)ccc4Cl)ccc23)cc1                  =             178
2              O=CN(O)CCCCCNC(=O)CCc1ccccc1                  =           30000
3  O=C(NO)c1cnc(N2CCC(CN3CC(=O)N4C(Cc5c([nH]c6ccccc56)C4c4ccc5c(c4)OCO5)C3=O)CC2)nc1 (stereo not given)                  =              80
4  Nc1ccccc1NC(=O)c1ccc(-c2cn(CCc3ccsc3)nn2)cc1                  >          100000
5  Cc1ccc(-c2cc(C(F)(F)F)nn2-c2ccc(S(=O)(=O)NCCCCCCCC(=O)NO)cc2)cc1                  =              61
6  O=C(CCCCCn1cc(-c2ccc3ncnc(Nc4ccc(F)c(Cl)c4)c3c2)nn1)NO                  =             9.5
7  O=C(/C=C/c1ccc(CCNC(=O)c2cncc(F)c2)cc1)NO                  =            35.9
8  CCN(CC)CCSc1ccc(/C=C/C(=O)NO)cc1NC(=O)C(Cl)Cl                  =             313
9  COc1nc(-c2ccc(NC(=O)Nc3ccc(C(=O)NCCCCCC(=O)Nc4ccccc4N)cc3)cc2)nc(N2CCOCC2)n1                  >           10000
